# Tested on: Poa annua (POAAN)
# method notes: Herbicidal pre-emergence action, test C (Table C3)
# Assay type: in vivo
# stated conditions: dosage 320 g/ha; visual scoring after about 3 weeks; 100% = plants have died, 0% = like control plants
observation type: Pre-emergence action against Poa annua (POAAN) (%)
A number alone suffices; assume %.

Fc1cccc(Oc2ccc(Cl)cn2)c1-c1cc(C(F)F)on1 [Example 1-9]; 100
Fc1cc(Cl)cnc1Oc1cccc(F)c1-c1cc(C(F)F)no1 [Example 1-19]; 100
Fc1cccnc1Oc1ccccc1-c1cc(C(F)F)no1 [Example 1-47]; 100
Fc1cccc(Oc2ccc(Cl)cn2)c1-c1cc(C(F)F)no1 [Example 1-17]; 100

Data request: # get_value(readout='Pre-emergence action against Poa annua (POAAN)', item= Cn1nc(-c2c(F)cccc2Oc2ncc(Cl)cc2F)cc1C(F)F [Example 1-61] )
Data returned: 90

Data request: # get_value(readout='Pre-emergence action against Poa annua (POAAN)', item= Fc1cccnc1Oc1cccc(F)c1-c1cc(C(F)F)no1 [Example 1-23] )
Data returned: 90

---

# Tested on: Bassia scoparia (KCHSC)
# method notes: Herbicidal pre-emergence action, test C (Table C11)
# Assay type: in vivo
# stated conditions: dosage 1280 g/ha, visual scoring vs untreated controls
Measured Pre-emergence action against Bassia scoparia (KCHSC), listed per entry for reference.

Fc1ccc(Oc2ncc(Cl)cc2F)c(-c2cc(C(F)F)on2)c1; 100%
Cc1cc(C)c(-c2cc(C(F)F)no2)c(Oc2ccccn2)c1; 100%
Fc1cccnc1Oc1ccccc1-c1cc(C(F)F)no1; 90%
Cc1cccc(Oc2ccc(Cl)cn2)c1-c1cc(C(F)F)no1; 90%
Fc1cc(Cl)cnc1Oc1ccccc1-c1cc(C(F)F)no1; 90%
Cc1cc(F)c(-c2cc(C(F)F)no2)c(Oc2ncc(Cl)cc2F)c1; 90%

Data request: # get_value(readout='Pre-emergence action against Bassia scoparia (KCHSC)', item= Cc1cccc(Oc2ncc(Cl)cc2F)c1-c1cc(C(F)F)no1 )
Data returned: 90%

Data request: # get_value(readout='Pre-emergence action against Bassia scoparia (KCHSC)', item= N#Cc1cccc(Oc2ccc(Cl)cn2)c1-c1cc(C(F)F)no1 )
Data returned: 100%

Data request: # get_value(readout='Pre-emergence action against Bassia scoparia (KCHSC)', item= Fc1cccc(Oc2ccc(Br)cn2)c1-c1cc(C(F)F)no1 )
Data returned: 100%

---

# System: Veronica persica (VERPE)
# method notes: Herbicidal post-emergence action (Table B12)
# Assay type: in vivo
# stated conditions: dosage 320 g/ha; visual rating about 3 weeks after treatment; 100% = plants have died, 0% = like control plants
Measured Post-emergence action against Veronica persica (VERPE), listed per entry for reference.

These solved cases illustrate the format of a correct answer.
Fc1cc(Cl)cnc1Oc1ccccc1-c1cncc(C(F)(F)F)c1; 100%
Cc1cc(C)c(-c2cc(C(F)F)no2)c(Oc2ncc(Cl)cc2F)c1; 100%

Data request: # get_value(readout='Post-emergence action against Veronica persica (VERPE)', item= Cc1cccc(Oc2ncc(Cl)cc2F)c1-c1cc(C(F)F)no1 )
Data returned: 100%

Data request: # get_value(readout='Post-emergence action against Veronica persica (VERPE)', item= Fc1ccc(Oc2ncc(Cl)cc2F)c(-c2cc(C(F)F)on2)c1 )
Data returned: 100%

Data request: # get_value(readout='Post-emergence action against Veronica persica (VERPE)', item= FC(F)(F)c1ccc(-c2ccccc2Oc2ccc(Cl)cn2)nc1 )
Data returned: 100%
